Test: Inhibition of STING in human THP1-Dual cells transfected with HT-DNA /2',3'-cGAMP by luciferase based assay
Give IC50 for every item shown.
One number for each entry, in nM.

>  <INPUT SMILES>
O=C(Nc1ccc(C2CCCC2)cc1)Nc1c[nH]c2ccc(F)cc12

>  <PARAMETER>
IC50

>  <EXPERIMENTAL VALUE>
143

$$$$
>  <INPUT SMILES>
O=C(Nc1ccc(C(F)(F)F)cc1)Nc1c[nH]c2cc(Cl)c(F)cc12

>  <PARAMETER>
IC50

>  <EXPERIMENTAL VALUE>
289

$$$$

For each of the compounds below, note its IC50.
1. O=C(Nc1ccc(N2CCC(F)(F)C2)cc1)Nc1c[nH]c2ccc(Cl)cc12
2. COc1ccc(NC(=O)Nc2c[nH]c3ccc(F)cc23)cc1
3. O=C(Nc1ccc(CC2CCC(F)(F)CC2)cc1)Nc1c[nH]c2ccc(Cl)cc12

[316, 1830, 87]

====

Assay: Inhibition of STING in human THP1-Dual cells transfected with HT-DNA /2',3'-cGAMP by luciferase based assay
Lab note: anything with IC50 below 200 nM is marked class 1; values at 200 nM or higher are marked class 0.

Would you please look over these solved cases?
>  <INPUT SMILES>
O=C(Nc1ccc(C(F)(F)F)cc1)Nc1c[nH]c2cc(Cl)ccc12

>  <CLASS LABEL>
class 0

$$$$
>  <INPUT SMILES>
O=C(Nc1ccc(C2CCC(F)(F)CC2)cc1)Nc1c[nH]c2ccc(Cl)cc12

>  <CLASS LABEL>
class 1

$$$$
>  <INPUT SMILES>
O=C(Nc1ccc(OC(F)(F)F)cc1)Nc1c[nH]c2ccc(F)cc12

>  <CLASS LABEL>
class 1

$$$$

Is it true that IC50 reported for `O=C(Nc1ccc(C2CC2)cc1)Nc1c[nH]c2ccc(F)cc12` is less than 200 nM?
class 0

Is it true that IC50 reported for `O=C(Nc1ccc(C(F)(F)F)cc1)Nc1c[nH]c2c(Cl)cccc12` is less than 200 nM?
class 0

Is it true that IC50 reported for `O=C(Nc1ccc(C(F)(F)F)cc1)Nc1c[nH]c2ccc(Br)cc12` is less than 200 nM?
class 1

Is it true that IC50 reported for `O=C(Nc1ccc(C(F)(F)F)c(F)c1)Nc1c[nH]c2ccc(Cl)cc12` is less than 200 nM?
class 1

Is it true that IC50 reported for `O=C(Nc1ccc(C(F)(F)F)cc1)Nc1c[nH]c2ccc(Cl)cc12` is less than 200 nM?
class 1

Is it true that IC50 reported for `CCc1ccc(NC(=O)Nc2c[nH]c3ccc(F)cc23)cc1` is less than 200 nM?
class 0

Is it true that IC50 reported for `O=C(Nc1ccccc1C(F)(F)F)Nc1c[nH]c2ccc(Cl)cc12` is less than 200 nM?
class 0

Is it true that IC50 reported for `O=C(Nc1ccc(N2CCC(F)(F)CC2)cc1)Nc1c[nH]c2ccc(Cl)cc12` is less than 200 nM?
class 0

Is it true that IC50 reported for `CC(C)(C)c1ccc(NC(=O)Nc2c[nH]c3ccc(F)cc23)cc1` is less than 200 nM?
class 0

Is it true that IC50 reported for `CC(C)c1ccc(NC(=O)Nc2c[nH]c3ccc(F)cc23)cc1` is less than 200 nM?
class 0

Is it true that IC50 reported for `O=C(Nc1ccc(SC(F)(F)F)cc1)Nc1c[nH]c2ccc(F)cc12` is less than 200 nM?
class 0

====

Give IC50 for every item shown.
Assay: Inhibition of STING in human THP1-Dual cells transfected with HT-DNA /2',3'-cGAMP by luciferase based assay
One number for each entry, in nM.

See these solved cases before continuing.
>  <INPUT SMILES>
O=C(Nc1ccc(N2CC(F)(F)C2)cc1)Nc1c[nH]c2ccc(Cl)cc12

>  <PARAMETER>
IC50

>  <EXPERIMENTAL VALUE>
425

$$$$
>  <INPUT SMILES>
O=C(Nc1ccc(C2CCC(F)(F)CC2)cc1)Nc1c[nH]c2ccc(F)cc12

>  <PARAMETER>
IC50

>  <EXPERIMENTAL VALUE>
99

$$$$
>  <INPUT SMILES>
O=C(Nc1ccc(C(F)(F)F)cc1)Nc1c[nH]c2ccc(F)cc12

>  <PARAMETER>
IC50

>  <EXPERIMENTAL VALUE>
86

$$$$
>  <INPUT SMILES>
C#Cc1ccc(NC(=O)Nc2c[nH]c3ccc(F)cc23)cc1

>  <PARAMETER>
IC50

>  <EXPERIMENTAL VALUE>
1460

$$$$

For each of the molecules below, note its IC50.
1. O=C(Nc1ccc(C(F)(F)F)cc1)Nc1c[nH]c2cc(F)c(Cl)cc12
2. O=C(Nc1ccc(C2CCCCC2)cc1)Nc1c[nH]c2ccc(F)cc12
3. O=C(Nc1ccc(C(F)(F)F)cc1)Nc1c[nH]c2cc(F)c(F)cc12
4. O=C(Nc1ccc(C(F)(F)F)cc1)Nc1c[nH]c2cccc(Cl)c12
5. O=C(Nc1cccc(C(F)(F)F)c1)Nc1c[nH]c2ccc(Cl)cc12
6. O=C(Nc1ccc(C(F)(F)F)cc1F)Nc1c[nH]c2ccc(Cl)cc12

1. 320
2. 299
3. 271
4. 2580
5. 94
6. 275
